Items are presented alongside their recorded TGI.
System: ACHN renal
testMethodNotes: NCI tumour cell line growth inhibition, 48 h

molecule	endpointLabel	measurement
Cn1c2ccccc2n2c(=O)c3cc([N+](=O)[O-])ccc3c(C#N)c12	TGI	> 100 µM
O=C1CCC2(c3ccc(F)cc3)Nc3cc(Cl)ccc3N12 (centres undefined)	TGI	> 100 µM
CC[C@@]1(O)C(=O)OCc2c1cc1n(c2=O)Cc2c-1nc1cc3c(cc1c2CCl)OCO3	TGI	0.0322 µM
CC(C)(C)c1cc(/C=C(\C#N)C(=O)NCCO)cc(C(C)(C)C)c1O	TGI	76.5 µM
O=C1CCCCN1CCCCC#Cc1ccccc1C#Cc1ccc([N+](=O)[O-])cc1	TGI	11.3 µM

Item under review: CC(C)(C)[Si](C)(C)OCC1OC(n2cnc3c(N)ncnc32)C(O[Si](C)(C)C(C)(C)C)C1O[Si](C)(C)C(C)(C)C (centres undefined) . Reported TGI?
27.2 µM

Can you look up the measured TGI of CCN1CCC(O)(C(C(=O)O)c2ccccc2)CC1 (centres undefined) for me?
> 100 µM

Query (molecule): `CCc1ccc(/C=C\c2cc(OC)c(OC)c(OC)c2)cc1` ; field requested: TGI
31.8 µM

Please report the recorded TGI for `COc1ccc(NC2=CC(=O)C(=O)c3ccccc32)nn1` .
5.1 µM
